Cited source for all entries: the supplement of paper PMC4466140

target: SpLsb1; experiment: SPOT peptide array binding signal intensity (averaged, normalized) (arbitrary units (background-subtracted, floor 0; scale differs between SH3 domains)); higher = stronger binding of the SH3 domain to the peptide
property.measured: SPOT peptide array binding signal intensity

Solved cases below.
[[record]]
binder = "GERSRPLVISILSSA"
reported = "≤ 0"

[[record]]
binder = "QGYPRQPQRPQRYHP"
reported = 4


Could I get SPOT peptide array binding signal intensity for every one of these entries?
1. DKSRPPRPPPKPLHL
2. GATNNAPTLPKRKNP
3. QPPLPSSAPPIPTSH
4. TKIRRRPQQPLTDFT
5. LFMKGTPEFPKSGFS

# output
1: 362; 2: 118; 3: ≤ 0; 4: 5; 5: ≤ 0
